Test system: Candida albicans
reportedConditions: 32 ug/mL
Description: Antifungal activity against Candida albicans ATCC 90028 (CO-ADD:FG_001); MIC in YNB media using NBS plates, by OD630
Results with a measured potency or affinity are listed apart.
assayEndpoint: Inhibition (%)

chemicalSmiles: O=[N+]([O-])c1ccc(-c2c(Nc3ccccc3)cccc2-c2ccccc2)cc1
assayEndpoint: Inhibition
experimentalValue: 7.71
--
chemicalSmiles: CC(=O)c1ccc(-c2ccccc2Nc2ccccc2)cc1
assayEndpoint: Inhibition
experimentalValue: 1.55
--
chemicalSmiles: O=[N+]([O-])c1ccc(-c2cccc3c2[nH]c2ccccc23)cc1
assayEndpoint: Inhibition
experimentalValue: 4.69
--
chemicalSmiles: Cc1cc(C)c(Nc2ccccc2-c2ccc([N+](=O)[O-])cc2)c(C)c1
assayEndpoint: Inhibition
experimentalValue: 7.08
--
chemicalSmiles: COc1ccc(Nc2ccccc2-c2ccc([N+](=O)[O-])cc2)cc1
assayEndpoint: Inhibition
experimentalValue: 5.77
--
chemicalSmiles: Cc1cccc(C)c1Nc1ccccc1-c1ccccc1[N+](=O)[O-]
assayEndpoint: Inhibition
experimentalValue: 6.73
--
chemicalSmiles: COc1cc([N+](=O)[O-])ccc1-c1c(Nc2ccccc2)cccc1OC
assayEndpoint: Inhibition
experimentalValue: 5.26
--
chemicalSmiles: O=[N+]([O-])c1ccc2c3ccccc3n(-c3ccccc3)c2c1
assayEndpoint: Inhibition
experimentalValue: 8.19
--
chemicalSmiles: O=[N+]([O-])c1ccc(-c2ccccc2N(Cc2ccccc2)c2ccccc2)cc1
assayEndpoint: Inhibition
experimentalValue: 8.51
--
chemicalSmiles: O=[N+]([O-])c1ccc(-c2ccccc2Nc2ccccc2)cc1C(F)(F)F
assayEndpoint: Inhibition
experimentalValue: 12.5
